- assay.info: inhibitors of fungal efflux pumps CDR1, CDR2, MDR1, pilot screen, validation compound set, multiplex, phenotypic (AID 588506);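 further: Nile Red retained in cells so higher fluorescence means more efflux inhibition; 0 = negative control wells and 1 = enniatin B 25 µM full block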
- condition.description: S. cerevisiae pump-expressing triplex, Nile Red efflux flow cytometry; at 10 µM; active compounds read high
Measured efflux inhibition (fraction of control) of individual entries
value.kind: efflux inhibition (fraction of control)

{"molecule": "C[N+]1(C)CCN(c2ccccc2)CC1", "measurement": -0.2}
{"molecule": "O=C1CN=C(c2ccccc2F)c2cc(Cl)ccc2N1", "measurement": 0.27}
{"molecule": "NCC1(c2ccc3c(c2)OCCO3)CCCC1", "measurement": 0.06}
{"molecule": "O=c1c2ccccc2nc(/C=C/c2ccc3c(c2)OCO3)n1-c1ccccc1", "measurement": 0.33}
{"molecule": "C[C@H]1CCC[C@H](O)CCCCCc2cc(O)cc(O)c2C(=O)O1", "measurement": -0.28}
{"molecule": "C[N+]1(C)CCOC(O)(c2ccc(-c3ccc(C4(O)C[N+](C)(C)CCO4)cc3)cc2)C1 (stereo unspecified)", "measurement": 0.19}
{"molecule": "CC(=O)c1ccc(-c2ccccc2)cc1", "measurement": -0.06}
{"molecule": "CN1C(=O)CN=C(c2ccc(Cl)cc2)c2cc(Cl)ccc21", "measurement": 0.27}
{"molecule": "C[N+]1(C)C2CCC1CC(OC(=O)C(CO)c1ccccc1)C2 (stereo unspecified)", "measurement": 0.05}
{"molecule": "CC(=O)[C@H]1CC[C@H]2[C@@H]3CC[C@H]4C[C@H](O)CC[C@]4(C)[C@H]3C(=O)C[C@]12C", "measurement": 0.14}
{"molecule": "O=C1CC[C@@]2(O)[C@H]3Cc4ccc(O)c5c4[C@@]2(CCN3CC2CC2)[C@H]1O5", "measurement": -0.02}
